Molecular target: human JAK3 kinase domain (Homo sapiens, UniProt P52333)
Sequence (P52333 796-1124): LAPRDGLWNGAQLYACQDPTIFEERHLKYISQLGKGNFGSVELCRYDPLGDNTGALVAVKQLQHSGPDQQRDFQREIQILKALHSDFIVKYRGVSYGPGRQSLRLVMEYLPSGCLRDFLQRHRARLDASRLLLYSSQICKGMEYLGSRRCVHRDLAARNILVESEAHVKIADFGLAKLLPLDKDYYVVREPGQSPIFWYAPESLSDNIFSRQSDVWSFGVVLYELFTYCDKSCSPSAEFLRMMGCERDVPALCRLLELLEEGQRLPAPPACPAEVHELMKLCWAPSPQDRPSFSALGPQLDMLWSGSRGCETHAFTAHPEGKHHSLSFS
I'd appreciate it if you marked entries rule met when IC50 is lower than 900 pM and rule not met when it is not.

Answered cases to consult:
molecule	cat
C[C@@H]1CCN(c2ccc(C#N)cn2)C[C@@H]1n1ccc2cnc3[nH]ccc3c21 (racemic)	rule not met
C[C@@H]1CCN(C(=O)CC#N)C[C@@H]1n1cc(Br)c2cnc3[nH]cc(C#N)c3c21 (racemic)	rule met
C[C@@H]1CCN(C(=O)CC#N)C[C@@H]1n1ccc2cnc3[nH]ccc3c21	rule met
C[C@@H]1CCN(C(=O)N(C)CC#N)C[C@@H]1n1ccc2cnc3[nH]ccc3c21 (racemic)	rule met
O[C@]12CC3C[C@H](C1)[C@H](n1ccc4cnc5[nH]ccc5c41)[C@@H](C3)C2	rule not met

Turning now to a further molecule:
q: Determine whether this molecule shows IC50 lower than 900 pM (ties excluded): C[C@@H]1CCN(C(=O)CC#N)C[C@@H]1n1cc(-c2ccncc2)c2cnc3[nH]cc(C#N)c3c21 (racemic)
a: rule met

====

Target: human JAK1 kinase domain (Homo sapiens)
Sequence (P23458 850-1154): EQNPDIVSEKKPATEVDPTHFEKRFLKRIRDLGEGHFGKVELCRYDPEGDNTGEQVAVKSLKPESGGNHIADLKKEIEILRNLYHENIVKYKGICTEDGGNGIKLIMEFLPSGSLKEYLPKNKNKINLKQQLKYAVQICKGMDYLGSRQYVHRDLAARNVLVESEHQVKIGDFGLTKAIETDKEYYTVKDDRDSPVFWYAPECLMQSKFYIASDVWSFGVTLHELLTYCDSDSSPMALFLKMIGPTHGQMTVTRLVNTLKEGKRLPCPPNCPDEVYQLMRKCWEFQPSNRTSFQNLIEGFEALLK
Record form. Attribute: IC50. Fill in for each entry.
Answers are plain numbers, in nM.

Recorded results for 2 compounds are shown here.
compound	readout.units	IC50
Cc1nnnn1CC(=O)N1CC[C@@H](C)[C@@H](n2ccc3cnc4[nH]ccc4c32)C1 (racemic)	nM	4.7
C[C@@H]1CCN(C(=O)CC#N)C[C@@H]1n1cc(Br)c2cnc3[nH]cc(C#N)c3c21 (racemic)	nM	6.9

# context switch: different compound, same IC50
q: I'm curious: which IC50 was measured for C[C@@H]1CCN(c2ccc(C#N)cn2)C[C@@H]1n1ccc2cnc3[nH]ccc3c21 (racemic) tested on human JAK1 kinase domain (Homo sapiens)?
a: 16
